Recorded pKi for compounds tested on Retinoic acid receptor alpha (Homo sapiens, UniProt P10276), drawn from a number of studies.
Notebook: values listed as pKi are -log10 of the concentration (mol/L).

Enquiry: Given the entry `CCOc1cc2c(cc1\C(C)=C/C=C/C(C)=C/C(=O)O)C(C(C)(C)C)=CCC2(C)C` , what pKi was observed with Retinoic acid receptor alpha (Homo sapiens, UniProt P10276)?
Return: 6.06

Enquiry: Given the entry `CCOc1cc2c(cc1\C(CC)=C(F)/C=C/C(C)=C/C(=O)O)C(C)=CC(C)(C)O2` , what pKi was observed with Retinoic acid receptor alpha (Homo sapiens, UniProt P10276)?
Return: 6.83

Enquiry: Given the entry `CCN1CCC(C)(C)c2cc(C(C)C)cc(\C(C)=C(F)/C=C/C(C)=C/C(=O)O)c21` , what pKi was observed with Retinoic acid receptor alpha (Homo sapiens, UniProt P10276)?
Return: 6.17

Enquiry: Given the entry `CC(C)N1CCC(C)(C)c2ccc(N(CC3CC3)c3ccc(C(=O)O)cc3)cc21` , what pKi was observed with Retinoic acid receptor alpha (Homo sapiens, UniProt P10276)?
Return: 5.29

Enquiry: Given the entry `CC1=CCC(C)(C)c2cc(C(/C=C/c3ccc(C(=O)O)cc3F)=N\O)ccc21` , what pKi was observed with Retinoic acid receptor alpha (Homo sapiens, UniProt P10276)?
Return: 4.74

Enquiry: Given the entry `CCOc1cc2c(cc1\C(C)=C(F)/C=C/C(C)=C/C(=O)O)C(C(C)C)=CC(C)(C)O2` , what pKi was observed with Retinoic acid receptor alpha (Homo sapiens, UniProt P10276)?
Return: 6.28

Enquiry: Given the entry `CCOc1cc2c(cc1\C(C)=C(F)/C=C/C(C)=C/C(=O)O)C(C(C)C)=CCC2(C)C` , what pKi was observed with Retinoic acid receptor alpha (Homo sapiens, UniProt P10276)?
Return: 6.21

Enquiry: Given the entry `CC1=CCC(C)(C)c2cc(C(/C=C/c3ccc(C(=O)O)cc3F)=N/O)ccc21` , what pKi was observed with Retinoic acid receptor alpha (Homo sapiens, UniProt P10276)?
Return: 5.15

Enquiry: Given the entry `CCCCCCCN1C(=O)CC(C)(C)c2cc(C(C=Cc3ccc(C(=O)O)cc3)=NO)ccc21` , what pKi was observed with Retinoic acid receptor alpha (Homo sapiens, UniProt P10276)?
Return: 4.96

Enquiry: Given the entry `Cc1cc2c(cc1N(CC1CC1)c1ccc(C(=O)O)cc1)C(C)(C)CCN2C(C)C` , what pKi was observed with Retinoic acid receptor alpha (Homo sapiens, UniProt P10276)?
Return: 4.82

Enquiry: Given the entry `CC/C(=C(F)/C=C/C(C)=C/C(=O)O)c1cc2c(cc1OC)OC(C)(C)C=C2C` , what pKi was observed with Retinoic acid receptor alpha (Homo sapiens, UniProt P10276)?
Return: 6.75

Enquiry: Given the entry `CCOc1cc2c(cc1\C(=C/C=C/C(C)=C/C(=O)O)CC)C(C)=CC(C)(C)O2` , what pKi was observed with Retinoic acid receptor alpha (Homo sapiens, UniProt P10276)?
Return: 6.21

Enquiry: Given the entry `CCCOc1cc2c(cc1\C(C)=C(F)/C=C/C(C)=C/C(=O)O)C(C)(C)CCC2(C)C` , what pKi was observed with Retinoic acid receptor alpha (Homo sapiens, UniProt P10276)?
Return: 6.23
